The origin of these recorded values is the supplement of paper PMC10037445.

# Test system: RAW-Dual
# protocolSummary: NF-kB SEAP reporter activity, fold change vs agonist alone; cytotoxicity flag (confluency mask): not cytotoxic; higher = enhanced NF-kB activity
# conditionSet: agonist: Pam3CSK4 (TLR2/1) 0.1 ug/mL
Over roughly 2,900 compounds, “NF-kB SEAP reporter activity, fold change vs agonist alone” has its median near 0.99; the highest 2% begin near 2.6. For the sample, the highest values were picked, then their nearest neighbours and some compounds at random.
reportedMetric: NF-kB SEAP reporter activity

- Cc1[nH]c(C=C2C(=O)Nc3ccc(F)cc32)c(C)c1C(=O)NCCN1CCCC1 (library stock concentration (final ~1000-fold dilution): 2 mM): 0.414
- CC1CNC(=O)c2cnn3ccc(nc23)NC(C)c2cc(F)ccc2O1 (stereo not given) (library stock concentration (final ~1000-fold dilution): 10 mM): 0.422
- O=C(O)c1ccc(Br)c(O)c1 (library stock concentration (final ~1000-fold dilution): 10 mM): 0.729
- CCC(C)C(=O)OC1CCC=C2C=CC(C)C(CCC3CC(O)CC(=O)O3)C21 (stereo not given) (library stock concentration (final ~1000-fold dilution): 10 mM): 2.12
- Nc1nc(F)nc2c1ncn2C1OC(CO)C(O)C1O (stereo not given) (library stock concentration (final ~1000-fold dilution): 10 mM): 1.22
- COc1ccc(Oc2cc(NCCC(F)(F)F)c3ncc(-c4ccc(C(=O)NC5CC5)c(C)c4)n3n2)c(F)c1F (library stock concentration (final ~1000-fold dilution): 10 mM): 0.913
- COCc1ccc(-c2ccc3ncc(C(N)=O)c(NC(C)C4CCOCC4)c3c2)cn1 (stereo not given) (library stock concentration (final ~1000-fold dilution): 10 mM): 2.13
- CC1CNc2c(cccc2S(=O)(=O)NC(CCCNC(=N)N)C(=O)N2CCC(C)CC2C(=O)O)C1.O (stereo not given) (library stock concentration (final ~1000-fold dilution): 10 mM): 0.87
- Cc1nc(NC(=O)N2CCCC2C(N)=O)sc1-c1csc(C(C)(C)C)n1 (stereo not given) (library stock concentration (final ~1000-fold dilution): 10 mM): 1
- Cl.NCCCCC(N)C(=O)O (stereo not given) (library stock concentration (final ~1000-fold dilution): 10 mM water): 1.17
